measured-on: bovine erythrocyte CA-II (Bos taurus, UniProt P00921)
Sequence (P00921 whole entry): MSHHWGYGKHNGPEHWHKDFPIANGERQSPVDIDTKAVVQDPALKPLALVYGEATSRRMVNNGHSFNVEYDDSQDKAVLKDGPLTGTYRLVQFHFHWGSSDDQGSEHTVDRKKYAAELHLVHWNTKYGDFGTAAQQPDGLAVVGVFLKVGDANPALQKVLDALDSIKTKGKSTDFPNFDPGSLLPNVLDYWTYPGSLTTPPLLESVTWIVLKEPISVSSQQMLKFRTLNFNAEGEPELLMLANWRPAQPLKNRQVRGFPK
quantity-name: Ki (µM)
Numeric only. Scale: µM

Record request: Ki value, item "O=[N+]([O-])c1ccc(-c2cs/c(=N/N=C/c3ccc(N4CCOCC4)cc3)n2CCN2CCOCC2)cc1"
9.64

====

measured-on: bovine erythrocyte CA-II (Bos taurus, UniProt P00921)
experimental-details: CA-II in vitro inhibition assay
Type: biochemical
The following compounds are shown together with reported pIC50 values.
For clarity, pIC50 is expressed as the negative log10 of concentration in mol/L.

Some solved cases for reference:
smiles: C(=N\N=c1\scc(-c2ccccc2)n1CCN1CCOCC1)/c1ccc(N2CCOCC2)cc1
measured-on: bovine erythrocyte CA-II (Bos taurus, UniProt P00921)
pIC50: 4.43
//
smiles: Clc1ccc(-c2cs/c(=N/N=C/c3ccc(N4CCOCC4)cc3)n2CCN2CCOCC2)cc1
measured-on: bovine erythrocyte CA-II (Bos taurus, UniProt P00921)
pIC50: 4.29

Here is another compound to look at.
What pIC50 value was documented for this compound, "O=[N+]([O-])c1ccc(-c2cs/c(=N/N=C/c3ccc(N4CCOCC4)cc3)n2CCN2CCOCC2)cc1" ?
4.83
